# Target: MAO A (amine oxidase [flavin-containing] A) (Homo sapiens, UniProt P21397)
# Sequence (P21397 whole entry): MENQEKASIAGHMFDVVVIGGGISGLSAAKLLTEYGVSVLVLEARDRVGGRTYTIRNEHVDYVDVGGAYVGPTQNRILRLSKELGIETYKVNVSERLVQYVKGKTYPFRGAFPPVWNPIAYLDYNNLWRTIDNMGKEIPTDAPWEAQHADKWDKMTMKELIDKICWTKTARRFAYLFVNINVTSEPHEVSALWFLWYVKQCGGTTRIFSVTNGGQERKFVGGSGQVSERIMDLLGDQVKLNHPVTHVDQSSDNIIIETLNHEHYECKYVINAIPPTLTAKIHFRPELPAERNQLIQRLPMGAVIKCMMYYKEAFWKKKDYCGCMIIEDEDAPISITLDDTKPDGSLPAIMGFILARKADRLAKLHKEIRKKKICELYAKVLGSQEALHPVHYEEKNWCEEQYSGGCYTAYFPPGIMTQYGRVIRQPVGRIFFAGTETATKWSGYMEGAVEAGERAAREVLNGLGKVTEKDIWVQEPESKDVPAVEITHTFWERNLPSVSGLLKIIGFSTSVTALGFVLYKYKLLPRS
# Protocol Text: Michaelis-Menten constant against MAO A.
Property: Km (µM)
// return numeric value only (unit: µM, not printed)

Km measured on CN1CC=C(c2ccccc2)CC1 = 140

----------
# Target: Amine oxidase [flavin-containing] B (Bos taurus)
# Sequence (P56560 whole entry): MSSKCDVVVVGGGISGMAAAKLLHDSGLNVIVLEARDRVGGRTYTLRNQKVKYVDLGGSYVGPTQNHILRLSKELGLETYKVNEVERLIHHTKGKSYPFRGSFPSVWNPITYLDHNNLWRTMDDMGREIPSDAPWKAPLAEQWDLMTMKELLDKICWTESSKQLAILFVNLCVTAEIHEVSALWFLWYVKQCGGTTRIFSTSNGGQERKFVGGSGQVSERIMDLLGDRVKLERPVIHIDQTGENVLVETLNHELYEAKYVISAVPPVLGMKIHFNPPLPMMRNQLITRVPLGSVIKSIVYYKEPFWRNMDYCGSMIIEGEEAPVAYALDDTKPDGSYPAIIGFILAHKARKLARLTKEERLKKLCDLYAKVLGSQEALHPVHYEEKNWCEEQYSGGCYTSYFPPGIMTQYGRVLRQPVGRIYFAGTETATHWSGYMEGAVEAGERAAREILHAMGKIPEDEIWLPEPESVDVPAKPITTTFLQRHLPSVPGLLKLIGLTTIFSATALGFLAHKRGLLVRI
# Protocol Text: Turnover number against MAO B (umol of substrate/min per umol of enzyme).
# Experimental Conditions: cattle
Measured TN accompanies every entry in the list below.
// return numeric value only (unit: min⁻¹, not printed)

Observe how each entry below is paired with its result.
[[record]]
cpd_smiles = "CN1CC=C(Cc2ccccc2)CC1"
property = "TN"
measurement_units = "min⁻¹"
test_result = 193

[[record]]
cpd_smiles = "CN1CC=C(CCc2cccc3ccccc23)CC1"
property = "TN"
measurement_units = "min⁻¹"
test_result = 80

[[record]]
cpd_smiles = "CN1CC=C(CCc2ccsc2)CC1"
property = "TN"
measurement_units = "min⁻¹"
test_result = 50.7

[[record]]
cpd_smiles = "CN1CC=C(c2cccc3ccccc23)CC1"
property = "TN"
measurement_units = "min⁻¹"
test_result = 55

[[record]]
cpd_smiles = "NCc1ccccc1"
property = "TN"
measurement_units = "min⁻¹"
test_result = 283

[[record]]
cpd_smiles = "CN1CC=C(c2cccs2)CC1"
property = "TN"
measurement_units = "min⁻¹"
test_result = 12

[[record]]
cpd_smiles = "CN1CC=C(Cc2cccs2)CC1"
property = "TN"
measurement_units = "min⁻¹"
test_result = 337

[[record]]
cpd_smiles = "CN1CC=C(CCc2ccccc2)CC1"
property = "TN"
measurement_units = "min⁻¹"
test_result = 61

[[record]]
cpd_smiles = "CN1CC=C(c2ccc3ccccc3c2)CC1"
property = "TN"
measurement_units = "min⁻¹"
test_result = 73.5

[[record]]
cpd_smiles = "CN1CC=C(Cc2ccsc2)CC1"
property = "TN"
measurement_units = "min⁻¹"
test_result = 153


TN measured on CN1CC=C(CCc2cccs2)CC1 = 51.9

TN measured on CN1CC=C(c2ccsc2)CC1 = 4.17

These data points were gathered from ChEMBL document CHEMBL1127042.
